# Tested on: SW 480
# EXPERIMENT NOTES: Growth inhibition test (MTT) for cytotoxic properties
# Assay type: cell-based, human
# CONDITION NOTES: Table 1a, glycoconjugates of batracyline
MEASURED PARAMETER: IC50 (µM)
Enter your answer as a number in µM; do not include the unit.

IC50 for CC(NC(=O)C(CCCCNC(=S)Nc1ccc(OC2OC(C)C(O)C(OCC(=O)[O-])C2O)cc1)NC(=S)Nc1ccc(OC2OC(C)C(O)C(OCC(=O)[O-])C2O)cc1)C(=O)Nc1ccc2nc3n(c(=O)c2c1)Cc1ccccc1-3.[Na+].[Na+] (centres unmarked) [Example 6.12, di-sodium salt] ?
35

Which IC50 value belongs to CO[C@H]1[C@@H](O)[C@H](O)[C@@H](Oc2ccc(Nc3nc(NCCO)nc(NCCCC[C@H](N)C(=O)N[C@@H](C)C(=O)Nc4ccc5c(c4)CN4C(=O)c6ccccc6C4=N5)n3)cc2)O[C@H]1C ?
30

What value of IC50 has been reported for the following compound? CO[C@@H]1[C@@H](O)[C@H](Oc2ccc(NC(=S)N[C@@H](CCCCN)C(=O)N[C@H](C)C(=O)Nc3ccc4c(c3)CN3C(=O)c5ccccc5C3=N4)cc2)O[C@H](CO)[C@@H]1OC
15

Item under review: CC(=O)OCC1OC(Oc2ccc(NC(=S)NCCCCC(N)C(=O)NC(C)C(=O)Nc3ccc4nc5n(c(=O)c4c3)Cc3ccccc3-5)cc2)C(O)C(O)C1O (centres unmarked) . Reported IC50?
95

Find the recorded IC50 belonging to CNC(=O)COC1C(O)C(CO)OC(Oc2ccc(NC(=S)NCCCCC(N)C(=O)NC(C)C(=O)Nc3ccc4nc5n(c(=O)c4c3)Cc3ccccc3-5)cc2)C1O (centres unmarked) and report it.
100
